In this section, each of the compounds is paired with its reported TGI.
System: T-47D breast
Assay: NCI tumour cell line growth inhibition, 48 h
Where a SMILES comes first, the peptide text is derived from it. [ ]: non-standard residue; d: D form. Ac5c = NC1(C(=O)O)CCCC1
readout-name: TGI

INSERT INTO measurements (compound, endpoint_result) VALUES
  ('COc1ccc(/C=C2\CCC(CNc3cc(C)on3)C2=O)cc1 (stereo not given)', '> 91.1 µM'),
  ('COc1cc(S(=O)(=O)Nc2nc(-c3ccc(N4C(=O)CSC4c4cccs4)cc3)cs2)ccc1Cl (stereo not given)', '> 100 µM'),
  ('O=c1[nH]c(C23CC4CC(CC(C4)C2)C3)cc2c1c(=O)oc1ccccc12', '44.6 µM'),
  ('CC(=O)CC(=O)Nc1ccc2ccccc2c1', '> 100 µM'),
  ('NC1(C(=O)NC2(C(=O)O)CCCC2)CCCC1 (H-[Ac5c]-[Ac5c]-OH)', '> 100 µM'),
  ('CCN1CCN(C(=O)[C@]23CC[C@@H](C)[C@H](C)[C@@H]2C2=CC[C@@H]4[C@@]5(C)C/C(=C/c6ccncc6)C(=O)C(C)(C)[C@@H]5CC[C@@]4(C)[C@]2(C)CC3)CC1', '3.49 µM'),
  ('Cc1ccc(-n2cnc3c(N)nc(N)nc32)cc1', '> 100 µM'),
  ('O=C1c2ccccc2C(=O)N1CCCSc1ccccc1', '> 100 µM'),
  ('COc1ccc2cc(CNCCCCCCCCCCCCNCc3ccc4cc(OC)ccc4c3)ccc2c1', '49.9 µM'),
  ('O=C1C(=O)c2c(oc(=O)c3ccccc23)-c2ccccc21', '> 25 µM');
